Please consider the recorded IC50 for PKL (Homo sapiens, UniProt P30613) in what follows.
quantity-measured: IC50 (nM)

Some compounds with recorded IC50:
• O=c1oc2c(O)c(O)ccc2c2cc(O)c(O)cc12 [Compound 5, urolithin D] = 28
• O=c1oc2c(O)c(O)ccc2c2cc(O)ccc12 [Compound 14] = 2100
• Oc1cc(O)c2cc(O)c(-c3ccc(O)c(O)c3)[o+]c2c1 [Compound 3, cyanidin] = 2100

[1] O=c1oc2c(O)c(O)ccc2c2ccc(O)cc12 [Compound 15]
[2] O=c1oc2cc(O)ccc2c2cc(O)c(O)cc12 [Compound 10]
[3] O=c1cc(-c2ccc(O)c(O)c2)oc2cc(O)cc(O)c12 [Compound 2, luteolin]
[4] Oc1ccc(-c2ccc(O)c(O)c2O)c(O)c1O [Compound 8, [1,1’-Biphenyl]-2,2’,3,3’,4,4’-hexaol]
rank_up(items): orders items by reported IC50 in ascending numerical order. In plain terms: list the labels in the order you were asked to.
2, 1, 4, 3
